Tested on: Bacillus cereus KB143
PROTOCOL NOTES: MIC against Bacillus cereus KB143 (D)
Format: cell-based
MEASUREMENT CONTEXT: Heart infusion agar (pH 7.0)
# Minimum inhibitory concentration (MIC) listing for each entry below
Entry rule: numbers only, all in μ g/ml.

>  <COMPOUND>
CO[C@@H]1[C@@H](O[C@@H]2O[C@H](C)[C@@H](O[C@H]3C[C@@](C)(O)[C@@H](O)[C@H](C)O3)[C@H](N(C)C)[C@H]2O)[C@@H](CC=O)C[C@@H](C)[C@@H](O[C@H]2CC[C@H](N(C)C)[C@@H](C)O2)/C=C/C=C/C[C@@H](C)OC(=O)C[C@H]1O

>  <MEASURE UNIT>
μ g/ml

>  <Minimum inhibitory concentration (MIC)>
1.56

$$$$

// below: Minimum inhibitory concentration (MIC) requested for another compound
[ask] Answer with reported Minimum inhibitory concentration (MIC) of CCC(=O)OC1C(C)OC(OC2C(C)OC(OC3C(CC=O)CC(C)C(OC4CCC(N(C)C)C(C)O4)C=CC=CCC(C)OC(=O)CC(OC(C)=O)C3OC)C(O)C2N(C)C)CC1(C)OC(C)=O (centres unmarked)
[reply] 3.12

---

System: Bacillus cereus KB143
PROTOCOL NOTES: MIC against Bacillus cereus KB143 (D)
Format: cell-based
MEASUREMENT CONTEXT: Heart infusion agar (pH 7.0)
ENDPOINT LABEL: Minimum inhibitory concentration (MIC) (μ g/ml)
Could you give me the number in μ g/ml? Just the number is fine.

>  <MOLECULE>
CCC(=O)OC1CC(=O)OC(C)CC=CC=CC(OC2CCC(N(C)C)C(C)O2)C(C)CC(CC=O)C(OC2OC(C)C(OC3CC(C)(OC(=O)CC)C(OC(=O)CC)C(C)O3)C(N(C)C)C2O)C1OC (centres unmarked)

>  <MEASURE UNIT>
μ g/ml

>  <Minimum inhibitory concentration (MIC)>
1.56

$$$$

[ask] For the molecule CCCC(=O)OC1(C)CC(OC2C(C)OC(OC3C(CC=O)CC(C)C(OC4CCC(N(C)C)C(C)O4)C=CC=CCC(C)OC(=O)CC(OC(=O)CC)C3OC)C(O)C2N(C)C)OC(C)C1OC(=O)CC (centres unmarked) , give its reported Minimum inhibitory concentration (MIC).
[reply] 1.56

[ask] Note Minimum inhibitory concentration (MIC) for the molecule shown: CCCC(=O)OC1C(C)OC(OC2C(C)OC(OC3C(CC=O)CC(C)C(OC4CCC(N(C)C)C(C)O4)C=CC=CCC(C)OC(=O)CC(OC(C)=O)C3OC)C(O)C2N(C)C)CC1(C)OC(C)=O (centres unmarked)
[reply] 1.56

[ask] Supply measured Minimum inhibitory concentration (MIC) of CCC(=O)OC1CC(=O)OC(C)CC=CC=CC(OC2CCC(N(C)C)C(C)O2)C(C)CC(CC=O)C(OC2OC(C)C(OC3CC(C)(OC(C)=O)C(OC(=O)CC)C(C)O3)C(N(C)C)C2O)C1OC (centres unmarked) in your reply.
[reply] 3.12

[ask] State its Minimum inhibitory concentration (MIC): CCCC(=O)OC1(C)CC(OC2C(C)OC(OC3C(CC=O)CC(C)C(OC4CCC(N(C)C)C(C)O4)C=CC=CCC(C)OC(=O)CC(OC(C)=O)C3OC)C(O)C2N(C)C)OC(C)C1OC(C)=O (centres unmarked)
[reply] 1.56

Cited source: patent US4575497A
